Data provenance is patent US7727998B2.

This section presents molecules with their documented IC50 values.
target: human MCH-1R (Homo sapiens, UniProt Q99705); construct: expressed in transfected cells; host or cells: CHO-K1 (American Type Culture Collection), membrane samples; assay: MCH binding inhibition test; settings: inhibition of specific [125I]MCH (50 pM) binding; membranes of MCH-1R expressing CHO-K1 cells; 25° C., one hour, pH 7.4; read-out: IC50
Sequence (Q99705 whole entry): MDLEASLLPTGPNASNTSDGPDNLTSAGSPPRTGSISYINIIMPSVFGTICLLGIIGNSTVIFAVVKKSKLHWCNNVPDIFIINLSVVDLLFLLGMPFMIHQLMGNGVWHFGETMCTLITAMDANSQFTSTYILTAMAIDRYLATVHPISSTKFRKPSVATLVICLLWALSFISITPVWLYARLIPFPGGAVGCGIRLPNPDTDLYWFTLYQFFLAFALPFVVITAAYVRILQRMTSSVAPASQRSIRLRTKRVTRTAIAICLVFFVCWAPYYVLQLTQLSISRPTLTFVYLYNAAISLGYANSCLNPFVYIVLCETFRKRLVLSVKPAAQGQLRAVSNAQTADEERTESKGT
Measurement Label: IC50

{"Molecule": "CN(CCCN1CCC2(CC1)OCc1ccccc12)C(=O)C(c1ccc(Cl)cc1)n1cccc1 (stereo not shown)", "Result": "1 nM"}
{"Molecule": "CCN(CCCN1CCC2(CC1)OCc1ccccc12)C(=O)C(c1ccc(F)c(F)c1)N1CCCC1=O (stereo not shown)", "Result": "1 nM"}
{"Molecule": "CN(CCCN1CCC2(CC1)OCc1ccccc12)C(=O)C(c1ccc(F)c(F)c1)n1ccnn1 (stereo not shown)", "Result": "1.9 nM"}
{"Molecule": "CCC(=O)Nc1cccc(C2CCN(CCCN(C)C(=O)C(C)(C)c3ccc(F)c(F)c3)CC2)c1", "Result": "2.5 nM"}

* * *

target: human MCH-1R (Homo sapiens); construct: expressed in transfected cells; host or cells: CHO-K1 (American Type Culture Collection), membrane samples; test: MCH binding inhibition test
pIC50: −log10 of the molar value.
Measurement Label: pIC50

{"Compound": "CN(CCCN1CCC2(CC1)OCc1cc(F)ncc12)C(=O)C(c1ccc(F)nc1)c1ccc(F)nc1 [Example 48]", "System Tested": "human MCH-1R (Homo sapiens)", "Measurement Label": "pIC50", "Result Number": 8.19}
{"Compound": "CN(CCCN1CCC2(CC1)OCc1ccccc12)C(=O)C(c1ccc(F)c(F)c1)n1ncnn1 (centres unmarked) [Example 28]", "System Tested": "human MCH-1R (Homo sapiens)", "Measurement Label": "pIC50", "Result Number": 8.72}
{"Compound": "CN(CCCN1CCC2(CC1)OCc1cc(F)ccc12)C(=O)C(c1ccc(F)c(F)c1)N1CCCC1=O (centres unmarked) [Example 33]", "System Tested": "human MCH-1R (Homo sapiens)", "Measurement Label": "pIC50", "Result Number": 8.85}
{"Compound": "O=C(NCCCN1CCC2(CC1)OCc1cc(F)ccc12)C(c1ccc(F)c(F)c1)N1CCCC1=O (centres unmarked) [Example 6]", "System Tested": "human MCH-1R (Homo sapiens)", "Measurement Label": "pIC50", "Result Number": 8.30}
{"Compound": "Cc1nccn1C(C(=O)N(C)CCCN1CCC2(CC1)OCc1ccc(F)cc12)c1ccc(F)c(F)c1 (centres unmarked) [Example 43]", "System Tested": "human MCH-1R (Homo sapiens)", "Measurement Label": "pIC50", "Result Number": 9.70}
